The entries below are paired with their reported half-life at 1 μM.
- method: Human hepatocyte stability assay
- Assay type: in vitro ADME
- particulars: cryopreserved hepatocytes, 1 μM test compound, 0.5 million cells/mL, pH 7.4, 37° C., 60 min, read-out: T½

1) O=C(NS(=O)(=O)C1CC1)[C@@H]1C[C@H](N2CCCOc3cc(F)c(F)cc32)CN1C(=O)C(c1ccccc1)c1ccccc1 > 460 min

Okay, now this compound:
GET /value?item= C[C@@]1(C(=O)O)C[C@H](N2CCCOc3cc(F)c(F)cc32)CN1C(=O)C(c1ccccc1)c1ccccc1 &field=half-life at 1 μM returns > 460 min

###

- test target: human AT2 receptor (Homo sapiens)
- Construct: membranes prepared in house
- method: AT2 receptor binding ([125I]CGP 42112A displacement, CHO-K1 membranes)
- particulars: [125I]CGP 42112A 0.05 nM, membranes of CHO-K1 cells expressing human AT2 receptor; Ki from IC50 by Cheng-Prussoff equation; read-out: Ki
pKi: −log10 of the molar value.
readout label: pKi

Before answering, review these 3 worked examples.
molecule	pKi
O=C(O)[C@@H]1C[C@@H](N2CCCOc3cc(F)c(F)cc32)CN1C(=O)C(c1ccccc1)c1ccccc1	8.85
O=C(O)[C@@H]1C[C@H](N2CCCCc3cc(Cl)ccc32)CN1C(=O)C(c1ccccc1)c1ccccc1	7.64
O=C(O)[C@@H]1C[C@H](N2CCc3ccccc32)CN1C(=O)C(c1ccccc1)c1ccccc1	6.65

[I] C[C@@]1(C(=O)O)C[C@H](N2CCCCc3ccccc32)CN1C(=O)C(c1ccccc1)c1ccccc1
[II] COc1ccc2c(c1)CCCCN2[C@H]1C[C@@H](C(=O)O)N(C(=O)C(c2ccccc2)c2ccccc2)C1
[III] O=C(O)[C@@H]1C[C@H](N2CCOc3ccccc3C2)CN1C(=O)C(c1ccccc1)c1ccccc1
Inquiry: I would appreciate it if you could sort these 3 molecules by pKi, starting from the smallest number. Quick reminder: the answer is the labels in the order asked.
Reply text: III, II, I
(III: 7.00, II: 8.06, I: 8.48)

[A] O=C(NS(=O)(=O)C1CC1)[C@@H]1C[C@H](N2CCCOc3ccc(F)cc32)CN1C(=O)C(c1ccccc1)c1ccccc1
[B] C[C@@]1(C(=O)NS(=O)(=O)C2CC2)C[C@H](N2CCCOc3cc(F)c(F)cc32)CN1C(=O)C(c1ccccc1)c1ccccc1 [Compound 42b]
[C] O=C(O)[C@@H]1C[C@H](N2CCCOc3ccc(F)cc32)CN1C(=O)C(c1ccccc1)c1ccccc1
Inquiry: Arrange the 3 molecules by rising pKi, starting with the smallest. Sort the labels as requested; that list is your answer.
Reply text: B, A, C

[P] O=C(NS(=O)(=O)C1CC1)[C@@H]1C[C@H](N2CCCOc3cc(F)ccc32)CN1C(=O)C(c1ccccc1)c1ccccc1
[Q] O=C(O)[C@@H]1C[C@H](N2CCCOc3ccccc32)CN1C(=O)C(c1ccccc1)c1ccccc1
Inquiry: From the items above, decide which of P and Q has the lower pKi reading. Returns: label corresponding to the selected item.
Reply text: P
(P: 8.22, Q: 8.70)

[1] O=C(O)[C@@H]1C[C@@H](N2CCCOc3ccccc32)CN1C(=O)C(c1ccccc1)c1ccccc1
[2] O=C(O)[C@@H]1C[C@@H](N2CCCOc3ccc(F)cc32)CN1C(=O)C(c1ccccc1)c1ccccc1
Inquiry: So which one has the bigger pKi here, 1 or 2 ? Could you answer with the label of the item you picked?
Reply text: 2
(2: 8.80, 1: 8.39)

###

- test target: human AT2 receptor (Homo sapiens, UniProt P50052)
- Construct: membranes prepared in house
- Sequence (P50052 1-363): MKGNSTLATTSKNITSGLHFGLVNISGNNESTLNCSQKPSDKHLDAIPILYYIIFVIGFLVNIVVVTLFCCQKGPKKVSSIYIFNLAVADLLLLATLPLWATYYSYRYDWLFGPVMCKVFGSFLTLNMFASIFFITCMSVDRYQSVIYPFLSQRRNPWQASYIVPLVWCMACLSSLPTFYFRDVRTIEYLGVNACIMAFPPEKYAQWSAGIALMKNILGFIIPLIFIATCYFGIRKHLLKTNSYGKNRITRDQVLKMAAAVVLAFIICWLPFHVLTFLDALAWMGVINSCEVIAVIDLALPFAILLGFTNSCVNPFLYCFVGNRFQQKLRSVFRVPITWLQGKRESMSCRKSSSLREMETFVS
- method: AT2 receptor binding ([125I]CGP 42112A displacement, CHO-K1 membranes)
- particulars: [125I]CGP 42112A 0.05 nM, membranes of CHO-K1 cells expressing human AT2 receptor; Ki from IC50 by Cheng-Prussoff equation; read-out: Ki
pKi: −log10 of the molar value.
readout label: pKi

compound	pKi
O=C(O)[C@@H]1C[C@H](N2CCCS(=O)(=O)c3ccccc32)CN1C(=O)C(c1ccccc1)c1ccccc1	8.00
O=C(NS(=O)(=O)C1CC1)[C@@H]1C[C@H](N2CCCCc3cc(F)c(F)cc32)CN1C(=O)C(c1ccccc1)c1ccccc1	7.82
C[C@@]1(C(=O)O)C[C@H](N2CCCCc3cc(F)c(F)cc32)CN1C(=O)C(c1ccccc1)c1ccccc1	7.93
O=C(O)[C@@H]1C[C@H](N2Cc3ccccc3C2)CN1C(=O)C(c1ccccc1)c1ccccc1	6.44
C[C@@]1(C(=O)NS(=O)(=O)C2CC2)C[C@@H](N2CCCOc3cc(F)c(F)cc32)CN1C(=O)C(c1ccccc1)c1ccccc1 [Compound 42a]	8.30

[I] O=C(O)[C@@H]1C[C@H](N2CCCCc3cc(F)c(F)cc32)CN1C(=O)C(c1ccccc1)c1ccccc1
[II] O=C(O)[C@@H]1C[C@@H](N2CCCCc3ccccc32)CN1C(=O)C(c1ccccc1)c1ccccc1
[III] O=C(O)[C@@H]1C[C@H](N2CCOCc3ccccc32)CN1C(=O)C(c1ccccc1)c1ccccc1
[IV] O=C(O)[C@@H]1C[C@H](N2CCc3ccccc3CC2)CN1C(=O)C(c1ccccc1)c1ccccc1
[V] NC(=O)[C@@H]1C[C@H](N2CCCCc3ccccc32)CN1C(=O)C(c1ccccc1)c1ccccc1
Inquiry: List items by pKi in falling order. I'd appreciate it if you listed the labels in the requested order.
Reply text: I, II, IV, V, III
(I: 8.55, II: 8.01, IV: 7.55, V: 7.18, III: 6.83)

[A] CN(C)S(=O)(=O)NC(=O)[C@@H]1C[C@H](N2CCCOc3cc(F)c(F)cc32)CN1C(=O)C(c1ccccc1)c1ccccc1
[B] O=C(O)[C@@H]1C[C@H](N2CCCOc3cc(F)ccc32)CN1C(=O)C(c1ccccc1)c1ccccc1
Inquiry: For A and B , which recorded pKi is lower? # reply format: chosen label
Reply text: A

[I] O=C(O)[C@@H]1C[C@H](N2CCCCc3cc(F)ccc32)CN1C(=O)C(c1ccccc1)c1ccccc1
[II] O=C(O)[C@@H]1C[C@H](N2CCCc3ccccc32)CN1C(=O)C(c1ccccc1)c1ccccc1
Inquiry: // max by pKi over [ I , II ] State the label of the item chosen.
Reply text: I
(I: 8.01, II: 7.62)
